The measurements presented in this section are drawn from the Human Domainome abundance scans (Beltran et al. 2025).

B1: Ankyrin-3, residues 4094 to 4171; numbered along this chain, Q12955 (parent)
chain: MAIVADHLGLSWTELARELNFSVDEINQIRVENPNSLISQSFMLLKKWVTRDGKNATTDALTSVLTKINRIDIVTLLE

Variants of: B1
Experiment: abundance fitness (aPCA) (normalised: wild type 0, dead -1); higher = more abundant; growth selection in yeast, the domain comes from the species named
Conditions: Homo sapiens
Kindly state abundance fitness for each of the entries shown.
Give the value as a plain number.

Task: Query (variant): K67W ; field requested: abundance fitness
Result: -0.667

Task: I would be grateful if you could share the reported abundance fitness for S36L .
Result: -0.933

Task: So what's the measured abundance fitness for this one? D24C
Result: -0.342

Task: I am curious: what abundance fitness value has been reported for W48R ?
Result: -1

Task: Recorded abundance fitness of L10M , please.
Result: -0.114

Task: Recorded abundance fitness for A56K , please?
Result: -0.175

Task: Returns the measured abundance fitness for the input variant. Input: L19H
Result: -0.694

Task: Given the entry V23D , report its measured abundance fitness.
Result: -0.335

Task: For the variant shown here, N35F , give the reported abundance fitness.
Result: -0.499

Task: // returns reported abundance fitness for input T62R
Result: 0.068

Task: Returns the measured abundance fitness for the input variant. Input: L10I
Result: -0.096

Task: GET /values?readout=abundance fitness&item= R30T
Result: -0.158

Task: Can you look up the measured abundance fitness of I71P for me?
Result: -0.046

Task: What value of abundance fitness has been recorded for this entry: V31Q
Result: 0.003

Task: Given the entry L44S , report its measured abundance fitness.
Result: -0.914

Task: Which abundance fitness value belongs to N69L ?
Result: -0.679

Task: Would you kindly share the measured abundance fitness for L65V ?
Result: -0.779

Task: Can you look up the measured abundance fitness of N35L for me?
Result: -0.626

Task: Return reported abundance fitness; argument: F21D
Result: -0.949

Task: Quick one: abundance fitness of T75D ?
Result: -0.155

Task: So what does the record say about abundance fitness for I38N ?
Result: 0.234

Task: Which abundance fitness value is on record for R30G ?
Result: -0.385

Task: Fill in: abundance fitness of N55Y is ___
Result: -0.041

Task: What does the record list as abundance fitness for T50F ?
Result: -0.247

Task: Fill blank: measured abundance fitness of the variant N33S is ____.
Result: -0.014

Task: For the variant shown here, I71A , give the reported abundance fitness.
Result: -0.075

Task: Fill in: abundance fitness of T58H is ___
Result: 0.001

Task: Look up abundance fitness for this variant: M1E
Result: -0.365

Task: abundance fitness for Q40V ?
Result: -0.894

Task: I am curious: what abundance fitness value has been reported for L8E ?
Result: -0.984

Task: Consider the variant K47N and give its measured abundance fitness.
Result: -0.033

Task: Can you look up the measured abundance fitness of T57H for me?
Result: -0.176

Task: I'd like to know its abundance fitness. The variant in question is N55F
Result: -0.15

Task: // abundance fitness lookup, key: D24N
Result: -0.197

Task: // returns reported abundance fitness for input L15E
Result: -0.766

Task: What measured abundance fitness goes with R30F ?
Result: -0.628

Task: For T13L , what is its reported abundance fitness?
Result: -0.104

Task: Consider the variant E32M and give its measured abundance fitness.
Result: -0.106

Task: Value lookup for abundance fitness; key = Q28K
Result: -0.134

Task: # lookup: abundance fitness of A56M
Result: -0.526

Task: State the recorded abundance fitness for this entry: N27C
Result: -0.238

Task: Look up abundance fitness: A5I
Result: -0.74

Task: Look up abundance fitness: V74N
Result: -0.777

Task: Could you tell me which abundance fitness is on file for W12A ?
Result: -0.862

Task: For the variant N27E , what abundance fitness is on record?
Result: -0.191

Task: Could you share which abundance fitness value was measured for S63A ?
Result: -0.014

Task: Fill in the blank: the reported abundance fitness of R30C is ____.
Result: -0.112

Task: Sample K54W — what was its abundance fitness?
Result: -0.21

Task: Tell me the measured abundance fitness of I3M , please.
Result: -0.081

Task: Reported abundance fitness, variant R70W : ____
Result: -0.795

Task: Name the reported abundance fitness value associated with the variant N35S
Result: -0.174

Task: Given the variant A2R , what is its reported abundance fitness?
Result: 0.149

Task: Quick check: abundance fitness of S11K ?
Result: -0.761

Task: Reported abundance fitness, variant D52H : ____
Result: -0.577

Task: Name the reported abundance fitness value associated with the variant L77K
Result: -0.602

Task: So what's the measured abundance fitness for this one? S63H
Result: -0.051

Task: Quick one: abundance fitness for N33P ?
Result: -0.812

Task: Can you share its abundance fitness? I mean this variant: I29C
Result: -0.741

Task: Param item = N33Q ; retrieve measured abundance fitness.
Result: 0.093

Task: Given K67A , state its recorded abundance fitness.
Result: -0.135

Task: Given L44V , state its recorded abundance fitness.
Result: -0.171

Task: Tell me the measured abundance fitness of T62V , please.
Result: -0.057

Task: Param item = S36Q ; retrieve measured abundance fitness.
Result: -0.336

Task: May I ask what abundance fitness has been recorded for L37V ?
Result: 0.048

Task: Any idea what abundance fitness was measured for I71N ?
Result: -0.155

Task: What value of abundance fitness has been reported for the following variant? V31A
Result: -0.07

Task: Dear colleague, I am looking for the recorded abundance fitness of the following variant: V31E
Result: -0.139

Task: So what's the measured abundance fitness for this one? L10W
Result: -0.101

Task: Param item = A60Y ; retrieve measured abundance fitness.
Result: -0.417

Task: # lookup: abundance fitness of F42H
Result: 0.119

Task: I'd like to know its abundance fitness. The variant in question is L45A
Result: -0.862

Task: If you can, please state the reported abundance fitness value of A60T .
Result: -0.283

Task: What abundance fitness value was documented for this variant, S39V ?
Result: -0.209

Task: Query: abundance fitness; subject: I3R
Result: -0.321

Task: Need abundance fitness of I73N , thanks.
Result: -0.597

Task: Which measured abundance fitness value corresponds to N35W ?
Result: -0.487

Task: For the variant shown here, F21W , give the reported abundance fitness.
Result: -0.978

Task: So what does the record say about abundance fitness for R17Q ?
Result: -0.273

Task: Name the reported abundance fitness value associated with the variant N33K
Result: -0.208

Task: Reported abundance fitness, variant G9S : ____
Result: -0.535

Task: Return reported abundance fitness; argument: S39P
Result: -0.685

Task: Param item = M43K ; retrieve measured abundance fitness.
Result: -0.185

Task: Please look up its abundance fitness: N35C
Result: -0.212

Task: Fill in the blank: the reported abundance fitness of L76G is ____.
Result: -0.457

Task: I'd like to know its abundance fitness. The variant in question is S36A
Result: -0.609

Task: Reported abundance fitness for T57Q : what is it?
Result: -0.298

Task: Any idea what abundance fitness was measured for R17N ?
Result: 0.231

Task: Which measured abundance fitness value corresponds to D6S ?
Result: -0.258
